Molecular target: SARM1 (Homo sapiens (Human), UniProt Q6SZW1)
Sequence (Q6SZW1 other isoform, or with tags, fused parts or gaps): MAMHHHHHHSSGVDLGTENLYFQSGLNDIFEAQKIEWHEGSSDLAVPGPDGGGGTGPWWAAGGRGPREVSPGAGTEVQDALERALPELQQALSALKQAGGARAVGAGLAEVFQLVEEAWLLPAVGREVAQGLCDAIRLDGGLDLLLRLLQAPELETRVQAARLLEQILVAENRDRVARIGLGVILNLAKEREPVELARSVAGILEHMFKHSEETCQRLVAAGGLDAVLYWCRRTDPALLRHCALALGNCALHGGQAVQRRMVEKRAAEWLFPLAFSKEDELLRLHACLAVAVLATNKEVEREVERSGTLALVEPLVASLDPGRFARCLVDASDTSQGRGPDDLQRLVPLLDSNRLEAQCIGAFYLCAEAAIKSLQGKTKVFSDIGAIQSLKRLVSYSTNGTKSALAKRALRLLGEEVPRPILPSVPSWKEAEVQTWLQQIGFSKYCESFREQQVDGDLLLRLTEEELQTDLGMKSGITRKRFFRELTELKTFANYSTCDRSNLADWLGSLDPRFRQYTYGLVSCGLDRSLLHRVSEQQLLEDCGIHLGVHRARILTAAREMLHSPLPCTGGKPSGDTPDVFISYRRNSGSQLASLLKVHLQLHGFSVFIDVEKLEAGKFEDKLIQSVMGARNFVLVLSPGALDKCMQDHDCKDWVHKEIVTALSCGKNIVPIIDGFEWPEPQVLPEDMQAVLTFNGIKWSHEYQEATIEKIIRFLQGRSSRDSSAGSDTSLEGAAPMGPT
Assay: ARM-SAM-TIR SARM1 IC50 assay (NADase activity, RapidFire mass spectrometry)
Details: ARM-SAM-TIR lysate 5 µg/mL, 2 h pre-incubation with compound, 5 µM NAD+, 2 hr at room temperature

{"columns": ["record.smiles", "subject.of.test", "IC50"],
 "data": [
  ["O=C(NCc1ccccc1)c1cncc2c(-c3ccncc3)n[nH]c12", "SARM1 (Homo sapiens (Human), UniProt Q6SZW1)", "100 to 1000 nM"],
  ["O=C(NCc1ccccc1)c1cccc2c(-c3ccncc3)n[nH]c12", "SARM1 (Homo sapiens (Human), UniProt Q6SZW1)", "100 to 1000 nM"],
  ["O=C(NCc1ccc(Cl)cc1)c1ccnc2c(-c3ccncc3)n[nH]c12", "SARM1 (Homo sapiens (Human), UniProt Q6SZW1)", "< 100 nM"],
  ["O=C(NCc1ccc(Cl)s1)c1cccc2c(-c3ccncc3F)n[nH]c12", "SARM1 (Homo sapiens (Human), UniProt Q6SZW1)", "100 to 1000 nM"],
  ["O=C(NCc1ccc(Cl)cc1)c1cccc2c(-c3ccncc3F)n[nH]c12", "SARM1 (Homo sapiens (Human), UniProt Q6SZW1)", "< 100 nM"],
  ["O=C(NCc1ccc(Cl)cc1)c1cncc2c(-c3ccncc3)n[nH]c12", "SARM1 (Homo sapiens (Human), UniProt Q6SZW1)", "< 100 nM"],
  ["O=C(NCc1ccc(Cl)nc1)c1cccc2c(-c3ccncc3)n[nH]c12", "SARM1 (Homo sapiens (Human), UniProt Q6SZW1)", "100 to 1000 nM"],
  ["C[C@H](NC(=O)c1cccc2c(-c3ccncc3)n[nH]c12)c1ccc(Cl)cc1", "SARM1 (Homo sapiens (Human), UniProt Q6SZW1)", "> 10000 nM"],
  ["O=C(NCc1ccc(Cl)c(F)c1)c1cccc2c(-c3ccncc3F)n[nH]c12", "SARM1 (Homo sapiens (Human), UniProt Q6SZW1)", "< 100 nM"],
  ["O=C(NCc1ccccc1)c1ccnc2c(-c3ccncc3)n[nH]c12", "SARM1 (Homo sapiens (Human), UniProt Q6SZW1)", "1010 to 5000 nM"],
  ["O=C(NCc1ccc(Cl)cc1)c1cccc2c(-c3ccncc3)n[nH]c12", "SARM1 (Homo sapiens (Human), UniProt Q6SZW1)", "< 100 nM"]
]}
